target: T1, Tiam1 peptide 3; assay: fluorescence anisotropy
T1 chain: YAAKAFRF
pKd: −log10 of the molar value.
reported-property: pKd

Tiam2 PDZ (protein) NVYDVQLTKTGSVCDFGFAVTAQVDERQHLSRIFISDVLPDGLAYGEGLRKGNEIMTLNGEAVSDLDLKQMEALFSEKSVGLTLIARPPDTKA: 5.11
Tiam1 PDZ (protein) VTQSIHIEKSDTAADTYGFSLSSVEEDGIRRLYVNSVKETGLASKKGLKAGDEILEINNRAADALNSSML: 3.70

Just for reference, paper PMC3059893 is where these values come from.
